- experimental.system: NADPH--cytochrome P450 reductase (Homo sapiens, UniProt P16435)
- Sequence (P16435 whole entry): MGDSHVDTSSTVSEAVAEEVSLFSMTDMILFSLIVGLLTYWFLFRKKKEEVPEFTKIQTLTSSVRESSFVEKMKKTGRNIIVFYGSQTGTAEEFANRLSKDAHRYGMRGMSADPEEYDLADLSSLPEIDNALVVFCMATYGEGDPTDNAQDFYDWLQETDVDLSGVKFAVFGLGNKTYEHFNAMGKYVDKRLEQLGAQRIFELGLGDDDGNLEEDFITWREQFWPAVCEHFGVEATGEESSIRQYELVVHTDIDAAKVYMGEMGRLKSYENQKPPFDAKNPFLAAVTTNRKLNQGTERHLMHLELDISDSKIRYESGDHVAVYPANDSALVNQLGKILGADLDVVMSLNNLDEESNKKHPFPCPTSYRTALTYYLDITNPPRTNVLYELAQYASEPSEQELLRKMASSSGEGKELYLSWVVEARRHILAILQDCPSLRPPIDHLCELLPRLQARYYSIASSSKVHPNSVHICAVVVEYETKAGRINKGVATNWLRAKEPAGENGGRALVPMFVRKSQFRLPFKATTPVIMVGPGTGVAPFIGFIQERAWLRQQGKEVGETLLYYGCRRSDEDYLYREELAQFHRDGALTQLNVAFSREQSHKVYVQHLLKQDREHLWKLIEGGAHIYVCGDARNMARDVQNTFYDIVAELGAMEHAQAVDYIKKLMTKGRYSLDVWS
- assay.summary: Substrate activity at recombinant human CPR expressed in baculovirus infected insect cells assessed as compound reduction rate by measuring NADPH consumption per umol of enzyme preincubated for 3 mins followed by NADPH addition measured for 5 mins at 2 sec time interval by UV-Visible spectroscopic method
- Type: ADME
readout.label: log10(Activity) (log10 of the value in µmol/min)
Transform log10 | Measure Activity | Unit µmol/min

Missing value: log10(Activity), NADPH--cytochrome P450 reductase (Homo sapiens, UniProt P16435), entry `Cc1coc2c1C(=O)C(=O)c1ccccc1-2` . Fill in? 3.08

Missing value: log10(Activity), NADPH--cytochrome P450 reductase (Homo sapiens, UniProt P16435), entry COc1ccc2c(c1)C1=C(C(=O)C2=O)C(C)(C)C(C)O1 (stereo not drawn) . Fill in? 2.91

Missing value: log10(Activity), NADPH--cytochrome P450 reductase (Homo sapiens, UniProt P16435), entry `Cc1cc2c(cc1C)-c1occ(C)c1C(=O)C2=O` . Fill in? 2.15
